Tested on: 855422-203-R-J1-PDC complex spheroids, viability;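 note: spheroids exposed to drugs for seven days before readout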
procedure.text: Anticancer human tumor 855422-203-R-J1-PDC patient-derived bladder carcinoma cell line growth inhibition [CLK]; active = viability on the fitted dose curve at most 10% of control; inactive = the rest
condition.description: second compound 0.0316 µM; first compound 1 µM
Possible outcomes: active, inactive

compound="CCc1c2c(nc3ccc(O)cc13)-c1cc3c(c(=O)n1C2)COC(=O)[C@]3(O)CC + CN1CCN(c2cc(C(=O)Nc3cc4cc(-c5cnn(C)c5)ccc4cn3)ccn2)CC1" label_class=active
compound="CCN1CCN(Cc2ccc(Nc3ncc(F)c(-c4cc(F)c5nc(C)n(C(C)C)c5c4)n3)nc2)CC1 + CN1CCN(c2cc(C(=O)Nc3cc4cc(-c5cnn(C)c5)ccc4cn3)ccn2)CC1" label_class=inactive
compound="CC1(C)CCC(CN2CCN(c3ccc(C(=O)NS(=O)(=O)c4ccc(NCC5CCOCC5)c([N+](=O)[O-])c4)c(Oc4cnc5[nH]ccc5c4)c3)CC2)=C(c2ccc(Cl)cc2)C1 + CN1CCN(c2cc(C(=O)Nc3cc4cc(-c5cnn(C)c5)ccc4cn3)ccn2)CC1" label_class=inactive
compound="COC1C=CCC(C)C(C)S(=O)(=O)NC(=O)c2ccc3c(c2)N(CC2CCC21)CC1(CCCc2cc(Cl)ccc21)CO3 (stereo not given) + CNC(=O)c1ccc(Nc2nc(OC3CCCC3)c3c(-c4ccc5nc(C)oc5c4)c[nH]c3n2)c(OC)c1" label_class=inactive
compound="CC(CO)NC(=O)c1cc(-c2ccc(Cl)cc2)nn(-c2cnn(C)c2)c1=O (stereo not given) + CN1CCN(c2cc(C(=O)Nc3cc4cc(-c5cnn(C)c5)ccc4cn3)ccn2)CC1" label_class=inactive
